- Test Name: Viability of fibroblast cells, MTT assay
- Assay type: cell-based, Human
- Settings: human, primary dermal fibroblast cells
Measurement Name: viability at 24 h, 10 µmol/L (%)
Write it as a number; the unit % goes unstated.

Data point: C[C@@H](O)[C@H](NC(=O)[C@H](CCCCN)NC(=O)CCCCC1CCSS1)C(=O)N[C@H](C(=O)N[C@@H](CCCNC(=N)N)C(=O)N[C@@H](CO)C(N)=O)[C@@H](C)O (mixture of isomers) [Peptide 15, Lip-Lys-Thr-Thr-Arg-Ser-NH2] ; viability at 24 h, 10 µmol/L = 122

###

- Assay Target: urokinase (Homo sapiens, UniProt P00749)
- Construct: purchased Sigma (Schnelldorf, Germany)
- Test Name: Amidolytic activity of urokinase (chromogenic substrate pyro-Glu-Gly-Arg-pNA)
- Assay type: biochemical
- Settings: amidolytic activity; Tris pH 8.8, 37 °C; IC50 by extrapolation using a linear plot; error 5%; read-out: IC50 Urokinase
Measurement Name: pIC50
Expect pIC50 as a plain number equal to -log10 of the molar concentration.

Data point: C[C@@H](O)[C@H](NC(=O)[C@H](CCCCN)NC(=O)CCCCC1CCSS1)C(=O)N[C@H](C(=O)N[C@@H](CCCCN)C(=O)N[C@@H](CO)C(N)=O)[C@@H](C)O (mixture of isomers) [Peptide 7, Lip-Lys-Thr-Thr-Lys-Ser-NH2] ; pIC50 = 1.82

Data point: C[C@@H](O)[C@H](NC(=O)[C@H](CCCNC(=N)N)NC(=O)CCCCC1CCSS1)C(=O)N[C@H](C(=O)N[C@@H](CCCCN)C(=O)N[C@@H](CO)C(N)=O)[C@@H](C)O (mixture of isomers) [Peptide 31, Lip-Arg-Thr-Thr-Lys-Ser- NH2] ; pIC50 = 2.34

###

- Test Name: Viability of fibroblast cells, MTT assay
- Assay type: cell-based, Human
- Settings: human, primary dermal fibroblast cells; 1 µmol/L, 24 h, MTT; ± 2; read-out: Viability of fibroblast cells
I'd appreciate it if you marked entries Yes when viability at 24 h, 1 µmol/L is lower than 90% and No when it is not.

Substance: H-KTTRS-OH [Peptide 9, H-Lys-Thr-Thr-Arg-Ser-OH]
Label Class: No
//
Substance: H-KTTRS-NH2 [Peptide 13, H-Lys-Thr-Thr-Arg-Ser-NH2]
Label Class: No

Q) Field: below-cutoff. Rule: recorded viability at 24 h, 1 µmol/L strictly less than 90%. Subject: H-RTTKS-NH2 [Peptide 29, H-Arg-Thr-Thr-Lys-Ser-NH2]
A) No

Q) Field: below-cutoff. Rule: recorded viability at 24 h, 1 µmol/L strictly less than 90%. Subject: H-RTTRS-NH2 [Peptide 21, H-Arg-Thr-Thr-Arg-Ser-NH2]
A) Yes

Q) Field: below-cutoff. Rule: recorded viability at 24 h, 1 µmol/L strictly less than 90%. Subject: Ac-KTTKS-NH2 [Peptide 6, Ac-Lys-Thr-Thr-Lys-Ser-NH2]
A) No

Q) Field: below-cutoff. Rule: recorded viability at 24 h, 1 µmol/L strictly less than 90%. Subject: H-RTTKS-OH [Peptide 25, H-Arg-Thr-Thr-Lys-Ser-OH]
A) No

###

- Test Name: Viability of fibroblast cells, MTT assay
- Assay type: cell-based, Human
- Settings: human, primary dermal fibroblast cells; 100 µmol/L, 24 h, MTT; ± 2; read-out: Viability of fibroblast cells
- Method: Viability of fibroblast cells was examined with the use of the MTT assay. MTT, a yellow tetrazole, is reduced to purple formazan only in living cells. Absorbance of the coloured solution was measured by a spectrophotometer. […] Toxicity of the tested substances was determined using an MTT [3-(4,5-dimethylthiazol-2-yl)-2,5-diphenyltetrazolium bromide)] assay. […] The absorbance of converted dye in living cells was measured at a wavelength of 570 nm. […]
Residues, ends and D or L forms follow the SMILES beside them.
Measurement Name: viability at 24 h, 100 µmol/L (%)
Write it as a number; the unit % goes unstated.

Answered cases to consult:
Compound: CCCCCCCCCCCCCCCC(=O)N[C@@H](CCCNC(=N)N)C(=O)N[C@H](C(=O)N[C@H](C(=O)N[C@@H](CCCNC(=N)N)C(=O)N[C@@H](CO)C(N)=O)[C@@H](C)O)[C@@H](C)O [Peptide 24, Pal-Arg-Thr-Thr-Arg-Ser-NH2] (HELM PEPTIDE1{[CCCCCCCCCCCCCCCC(=O)[*:2]].R.T.T.R.S.[am]}$$$$V2.0)
Output Unit: %
Reported Result: 97

Compound: C[C@@H](O)[C@H](NC(=O)[C@H](CCCCN)NC(=O)CCCCC1CCSS1)C(=O)N[C@H](C(=O)N[C@@H](CCCCN)C(=O)N[C@@H](CO)C(=O)O)[C@@H](C)O (mixture of isomers) [Peptide 3, Lip-Lys-Thr-Thr-Lys-Ser-OH]
Output Unit: %
Reported Result: 81

Data point: C[C@@H](O)[C@H](NC(=O)[C@H](CCCNC(=N)N)NC(=O)CCCCC1CCSS1)C(=O)N[C@H](C(=O)N[C@@H](CCCCN)C(=O)N[C@@H](CO)C(N)=O)[C@@H](C)O (mixture of isomers) [Peptide 31, Lip-Arg-Thr-Thr-Lys-Ser- NH2] ; viability at 24 h, 100 µmol/L = 117

Data point: CCCCCCCCCCCCCCCC(=O)N[C@@H](CCCNC(=N)N)C(=O)N[C@H](C(=O)N[C@H](C(=O)N[C@@H](CCCCN)C(=O)N[C@@H](CO)C(N)=O)[C@@H](C)O)[C@@H](C)O [Peptide 32, Pal-Arg-Thr-Thr-Lys-Ser- NH2] (HELM PEPTIDE1{[CCCCCCCCCCCCCCCC(=O)[*:2]].R.T.T.K.S.[am]}$$$$V2.0) ; viability at 24 h, 100 µmol/L = 118

Data point: CCCCCCCCCCCCCCCC(=O)N[C@@H](CCCCN)C(=O)N[C@H](C(=O)N[C@H](C(=O)N[C@@H](CCCCN)C(=O)N[C@@H](CO)C(=O)O)[C@@H](C)O)[C@@H](C)O [Peptide 4, Pal-Lys-Thr-Thr-Lys-Ser-OH, reference compound] (HELM PEPTIDE1{[CCCCCCCCCCCCCCCC(=O)[*:2]].K.T.T.K.S}$$$$V2.0) ; viability at 24 h, 100 µmol/L = 85

###

- Assay Target: plasmin (Homo sapiens, UniProt P00747)
- Construct: purchased Chromogenix (Milano, Italy)
- Sequence (P00747 581-810 limits assumed): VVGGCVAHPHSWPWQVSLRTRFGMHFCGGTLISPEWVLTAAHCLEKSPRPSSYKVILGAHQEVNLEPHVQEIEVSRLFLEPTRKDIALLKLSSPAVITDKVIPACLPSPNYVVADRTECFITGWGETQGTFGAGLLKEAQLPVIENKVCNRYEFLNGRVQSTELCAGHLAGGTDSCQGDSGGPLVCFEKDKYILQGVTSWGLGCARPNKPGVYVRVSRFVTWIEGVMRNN
- Sequence (P00747 97-580 partner limits assumed): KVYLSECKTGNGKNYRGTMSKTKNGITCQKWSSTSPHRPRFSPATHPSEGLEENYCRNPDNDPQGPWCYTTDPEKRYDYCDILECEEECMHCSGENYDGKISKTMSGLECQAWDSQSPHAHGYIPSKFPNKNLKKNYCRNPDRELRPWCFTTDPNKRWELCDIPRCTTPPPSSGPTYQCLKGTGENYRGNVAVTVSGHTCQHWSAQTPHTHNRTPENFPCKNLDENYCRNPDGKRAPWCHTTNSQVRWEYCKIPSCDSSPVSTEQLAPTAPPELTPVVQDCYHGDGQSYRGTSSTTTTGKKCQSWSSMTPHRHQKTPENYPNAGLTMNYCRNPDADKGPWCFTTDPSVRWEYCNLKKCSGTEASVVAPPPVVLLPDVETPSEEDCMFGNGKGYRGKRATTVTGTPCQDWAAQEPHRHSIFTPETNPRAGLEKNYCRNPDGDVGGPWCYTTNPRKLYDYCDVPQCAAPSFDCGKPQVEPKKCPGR
- Test Name: Amidolytic activity of plasmin (chromogenic substrate H-D-Val-Leu-Lys-pNA)
- Type: biochemical
- Settings: amidolytic activity; Tris pH 7.4, 37 °C; IC50 by extrapolation using a linear plot; error 5%; read-out: IC50 Plasmin
pIC50: −log10 of the molar value.
So basically: pIC50 at 3 or higher? That is Met. Lower than 3? That is Not met.

Recorded results for 10 substances are shown here.
Substance: Ac-RTTKS-NH2 [Peptide 30, Ac-Arg-Thr-Thr-Lys-Ser- NH2]
Assay Target: plasmin (Homo sapiens, UniProt P00747)
Label Class: Not met
//
Substance: H-RTTKS-OH [Peptide 25, H-Arg-Thr-Thr-Lys-Ser-OH]
Assay Target: plasmin (Homo sapiens, UniProt P00747)
Label Class: Met
//
Substance: Ac-KTTRS-NH2 [Peptide 14, Ac-Lys-Thr-Thr-Arg-Ser-NH2]
Assay Target: plasmin (Homo sapiens, UniProt P00747)
Label Class: Not met
//
Substance: Ac-RTTRS-NH2 [Peptide 22, Ac-Arg-Thr-Thr-Arg-Ser-NH2]
Assay Target: plasmin (Homo sapiens, UniProt P00747)
Label Class: Not met
//
Substance: H-KTTKS-OH [Peptide 1, H-Lys-Thr-Thr-Lys-Ser-OH, reference compound]
Assay Target: plasmin (Homo sapiens, UniProt P00747)
Label Class: Met
//
Substance: Ac-KTTRS-OH [Peptide 10, Ac-Lys-Thr-Thr-Arg-Ser-OH]
Assay Target: plasmin (Homo sapiens, UniProt P00747)
Label Class: Not met
//
Substance: Ac-KTTKS-OH [Peptide 2, Ac-Lys-Thr-Thr-Lys-Ser-OH]
Assay Target: plasmin (Homo sapiens, UniProt P00747)
Label Class: Not met
//
Substance: H-RTTKS-NH2 [Peptide 29, H-Arg-Thr-Thr-Lys-Ser-NH2]
Assay Target: plasmin (Homo sapiens, UniProt P00747)
Label Class: Met
//
Substance: H-RTTRS-OH [Peptide 17, H-Arg-Thr-Thr-Arg-Ser-OH]
Assay Target: plasmin (Homo sapiens, UniProt P00747)
Label Class: Met
//
Substance: Ac-RTTKS-OH [Peptide 26, Ac-Arg-Thr-Thr-Lys-Ser-OH]
Assay Target: plasmin (Homo sapiens, UniProt P00747)
Label Class: Not met

From here, focus on the item given below.
Q) Quick check: does H-KTTKS-NH2 [Peptide 5, H-Lys-Thr-Thr-Lys-Ser-NH2] have pIC50 greater than or equal to 3?
A) Met
